molecular target: Equilibrative nucleoside transporter 1 (Homo sapiens); also: assay procedure not described here
Sequence (Q99808 whole entry): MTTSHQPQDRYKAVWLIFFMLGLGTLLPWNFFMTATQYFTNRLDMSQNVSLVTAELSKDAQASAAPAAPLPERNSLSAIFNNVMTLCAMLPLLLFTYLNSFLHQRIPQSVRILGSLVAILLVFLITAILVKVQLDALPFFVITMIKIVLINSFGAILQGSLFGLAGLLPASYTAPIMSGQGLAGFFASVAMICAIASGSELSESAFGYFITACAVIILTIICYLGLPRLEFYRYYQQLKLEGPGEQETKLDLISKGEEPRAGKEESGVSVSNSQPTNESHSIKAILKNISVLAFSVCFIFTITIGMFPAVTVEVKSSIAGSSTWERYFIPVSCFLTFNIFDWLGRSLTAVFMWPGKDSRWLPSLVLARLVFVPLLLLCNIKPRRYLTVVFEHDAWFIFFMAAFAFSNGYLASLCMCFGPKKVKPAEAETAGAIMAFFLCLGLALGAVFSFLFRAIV
testReadout: AC50

# compound, testTarget, testReadout, result
measured = [
    ("CN(C)CCCN1c2ccccc2CCc2ccccc21 [IMIPRAMINE]", "Equilibrative nucleoside transporter 1 (Homo sapiens)", "AC50", "> 30 µM"),
    ("OC[C@H]1O[C@@H](Oc2cc(O)cc(/C=C/c3ccc(O)cc3)c2)[C@H](O)[C@@H](O)[C@@H]1O [PICEID]", "Equilibrative nucleoside transporter 1 (Homo sapiens)", "AC50", "> 30 µM"),
    ("Cc1ccc(C)c(OCCCC(C)(C)C(=O)O)c1 [GEMFIBROZIL]", "Equilibrative nucleoside transporter 1 (Homo sapiens)", "AC50", "> 30 µM"),
    ("C[N+]1(C)CCC(=C(c2ccccc2)c2ccccc2)CC1", "Equilibrative nucleoside transporter 1 (Homo sapiens)", "AC50", "> 10 µM"),
    ("CC(C)(Oc1ccc(CCNC(=O)c2ccc(Cl)cc2)cc1)C(=O)O [BEZAFIBRATE]", "Equilibrative nucleoside transporter 1 (Homo sapiens)", "AC50", "> 10 µM"),
    ("O=C(O)COCCN1CCN(C(c2ccccc2)c2ccc(Cl)cc2)CC1 (configuration not stated) [CETIRIZINE]", "Equilibrative nucleoside transporter 1 (Homo sapiens)", "AC50", "> 30 µM"),
    ("COC(=O)C1=C(C)NC(C)=C(C(=O)OCCN2CCN(C(c3ccccc3)c3ccccc3)CC2)C1c1cccc([N+](=O)[O-])c1 (configuration not stated) [MANIDIPINE 6300]", "Equilibrative nucleoside transporter 1 (Homo sapiens)", "AC50", "> 30 µM"),
    ("CC(C)C[C@H](NC(=O)[C@@H](O)[C@H](N)Cc1ccccc1)C(=O)O [UBENIMEX]", "Equilibrative nucleoside transporter 1 (Homo sapiens)", "AC50", "> 30 µM"),
    ("CCCN(CCC)S(=O)(=O)c1ccc(C(=O)O)cc1 [PROBENECID]", "Equilibrative nucleoside transporter 1 (Homo sapiens)", "AC50", "> 10 µM"),
    ("CNC[C@H](O)c1ccc(O)c(O)c1 [EPINEPHRINE]", "Equilibrative nucleoside transporter 1 (Homo sapiens)", "AC50", "> 30 µM"),
    ("O=C(c1cc(Cc2n[nH]c(=O)c3ccccc23)ccc1F)N1CCN(C(=O)C2CC2)CC1 [OLAPARIB]", "Equilibrative nucleoside transporter 1 (Homo sapiens)", "AC50", "> 30 µM"),
    ("COC(=O)[C@H]1[C@H]2C[C@@H]3c4[nH]c5cc(OC)ccc5c4CCN3C[C@H]2C[C@@H](OC(=O)c2cc(OC)c(OC)c(OC)c2)[C@@H]1OC [RESERPINE]", "Equilibrative nucleoside transporter 1 (Homo sapiens)", "AC50", "28.5 µM"),
    ("CCOC(=O)c1ccc(N)cc1 [BENZOCAINE]", "Equilibrative nucleoside transporter 1 (Homo sapiens)", "AC50", "> 10 µM"),
    ("CC1=C(/C=C/C(C)=C/C=C/C(C)=C/CO)C(C)(C)CCC1 [RETINOL]", "Equilibrative nucleoside transporter 1 (Homo sapiens)", "AC50", "> 10 µM"),
    ("O=C(O)c1ccc(NC(=O)[C@H](Cc2ccc(O)cc2)NC(=O)c2ccccc2)cc1 [BENTIROMIDE]", "Equilibrative nucleoside transporter 1 (Homo sapiens)", "AC50", "> 10 µM"),
    ("COc1cc(N)c(Cl)cc1C(=O)NC1CCN(CCCOc2ccc(F)cc2)CC1OC (configuration not stated) [CISAPRIDE]", "Equilibrative nucleoside transporter 1 (Homo sapiens)", "AC50", "> 30 µM"),
    ("CCOc1nc2cccc(C(=O)O)c2n1Cc1ccc(-c2ccccc2-c2nnn[nH]2)cc1", "Equilibrative nucleoside transporter 1 (Homo sapiens)", "AC50", "> 30 µM"),
]

Data provenance: ChEMBL document CHEMBL5291721
